Sourced from patent US8901133B2

Quick record: IC50, UniProt:O00329.
Sequence (O00329 whole entry): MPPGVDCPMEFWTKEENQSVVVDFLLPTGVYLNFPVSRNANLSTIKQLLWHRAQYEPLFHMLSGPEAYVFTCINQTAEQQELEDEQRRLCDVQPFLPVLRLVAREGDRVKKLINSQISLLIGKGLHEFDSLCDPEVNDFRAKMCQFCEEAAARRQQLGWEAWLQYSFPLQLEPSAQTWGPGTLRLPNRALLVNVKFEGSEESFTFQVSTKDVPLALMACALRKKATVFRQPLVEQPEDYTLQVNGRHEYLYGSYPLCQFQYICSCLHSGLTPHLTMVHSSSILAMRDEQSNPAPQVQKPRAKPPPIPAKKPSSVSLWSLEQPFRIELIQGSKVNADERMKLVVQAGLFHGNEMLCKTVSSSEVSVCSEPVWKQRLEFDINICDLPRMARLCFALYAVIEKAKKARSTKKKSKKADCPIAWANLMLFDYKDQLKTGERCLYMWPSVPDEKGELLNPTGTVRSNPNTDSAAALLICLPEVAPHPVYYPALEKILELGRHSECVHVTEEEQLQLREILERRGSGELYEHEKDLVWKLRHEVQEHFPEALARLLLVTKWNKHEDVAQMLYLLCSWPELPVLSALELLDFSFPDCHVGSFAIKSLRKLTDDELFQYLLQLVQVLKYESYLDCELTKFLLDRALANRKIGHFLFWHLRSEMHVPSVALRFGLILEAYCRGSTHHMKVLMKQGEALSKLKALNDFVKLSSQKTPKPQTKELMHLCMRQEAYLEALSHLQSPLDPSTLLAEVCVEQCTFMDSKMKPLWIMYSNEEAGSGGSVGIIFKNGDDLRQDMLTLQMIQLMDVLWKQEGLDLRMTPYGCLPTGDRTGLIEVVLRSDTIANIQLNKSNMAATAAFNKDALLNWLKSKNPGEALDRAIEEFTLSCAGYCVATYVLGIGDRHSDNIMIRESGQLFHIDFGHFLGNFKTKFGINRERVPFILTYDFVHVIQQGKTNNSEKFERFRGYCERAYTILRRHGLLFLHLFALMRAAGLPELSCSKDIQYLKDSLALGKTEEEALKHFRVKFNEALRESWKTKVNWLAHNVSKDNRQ
Sequence (P27986 whole entry partner): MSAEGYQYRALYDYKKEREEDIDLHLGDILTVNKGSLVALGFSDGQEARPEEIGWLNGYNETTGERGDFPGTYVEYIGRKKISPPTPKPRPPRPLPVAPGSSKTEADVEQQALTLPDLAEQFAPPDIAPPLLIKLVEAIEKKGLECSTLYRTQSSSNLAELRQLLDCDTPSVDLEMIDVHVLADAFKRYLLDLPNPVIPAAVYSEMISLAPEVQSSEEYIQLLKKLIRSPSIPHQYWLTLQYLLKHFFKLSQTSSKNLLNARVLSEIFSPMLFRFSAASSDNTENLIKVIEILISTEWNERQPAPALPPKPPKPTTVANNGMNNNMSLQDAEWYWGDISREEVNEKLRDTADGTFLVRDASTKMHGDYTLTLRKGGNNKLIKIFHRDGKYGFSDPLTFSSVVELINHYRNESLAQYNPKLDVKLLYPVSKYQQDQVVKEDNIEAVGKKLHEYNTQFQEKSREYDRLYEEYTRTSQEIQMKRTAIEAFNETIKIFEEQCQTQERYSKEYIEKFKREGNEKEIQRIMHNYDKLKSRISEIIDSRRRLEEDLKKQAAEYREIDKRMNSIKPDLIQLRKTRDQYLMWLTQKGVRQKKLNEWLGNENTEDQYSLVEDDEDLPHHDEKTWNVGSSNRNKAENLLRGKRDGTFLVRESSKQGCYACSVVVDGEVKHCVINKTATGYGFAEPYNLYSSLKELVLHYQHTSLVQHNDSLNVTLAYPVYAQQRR

Please review the entries below; each comes with its answer.
[
  {
    "given_smiles": "C[C@H](Nc1ncnc2[nH]cnc12)c1cc2cccc(Cl)c2c(C(=O)N2C3CCC2COC3)n1",
    "IC50": "< 100 nM"
  },
  {
    "given_smiles": "C[C@H](Nc1ncnc2scnc12)c1cc2cccc(Cl)c2c(C(=O)NCC2CCOCC2)n1",
    "IC50": "< 1000 nM"
  },
  {
    "given_smiles": "C[C@H](Nc1ncnc2scnc12)c1cc2cccc(Cl)c2c(C(=O)NC2CCOCC2)n1",
    "IC50": "< 100 nM"
  }
]

// moving on: another record for IC50
# value lookup — system UniProt:O00329, readout IC50, item C[C@H](Nc1ncnc2scnc12)c1cc2cccc(Cl)c2c(OCCN2CCCC2)n1
< 100 nM
